Study Target: NEK3 (human)
Protocol: KINOMEscan competition binding
Applied Conditions: compound 10.0 µM
For each record, check the reported kinase still bound, per cent of control: if it is below 90% write 1.0, else write 0.0.

                                  structure  label_class
0  COc1cc2ncn(-c3cc(OCc4ccccc4C(F)(F)F)c(C(N)=O)s3)c2cc1OC          0.0
1  C=CC(=O)Nc1cc(-n2c(=O)ccc3cnc4ccc(-c5cn[nH]c5)cc4c32)ccc1C          1.0
2  O=C1NC(=O)/C(=C/c2ccc3nccc(-c4ccncc4)c3c2)S1          1.0
3  CNC(=O)c1cc(Oc2ccc(NC(=O)Nc3ccc(Cl)c(C(F)(F)F)c3)cc2)ccn1          1.0
4  CN(C)C/C=C/C(=O)Nc1ccc(C(=O)Nc2cccc(Nc3nccc(-c4cccnc4)n3)c2)cc1          1.0
5  COc1cc2ncnc(-n3nc(-c4ccccn4)nc3N)c2cc1OC          1.0
6  COCC(=O)NC/C=C/c1ccc2ncnc(Nc3ccc(Oc4ccc(C)nc4)c(C)c3)c2c1          0.0
7  O=C(Nc1cccc(Nc2ncc(Br)c(NCCc3cnc[nH]3)n2)c1)N1CCCC1          1.0
8  COc1cc(C(=O)N2CCC(N3CCN(C)CC3)CC2)ccc1Nc1ncc2c(n1)N(C)c1ccccc1C(=O)N2C          0.0
